Hello, the source for this data is patent US12629370B2, in case you need it.

ASSAY TEXT: Example 7: single and multiple dose pharmacokinetics and food effect in healthy men
Format: in vivo, human
EXPERIMENTAL SETUP: male, human, plasma, oral; repeat dosing, 20 mg QD; read-out: mean plasma T1/2 (converted)
Protocol: Samples were analyzed using validated liquid chromatography with tandem mass spectrometry (LC/MS/MS) methods. The LLOQ was 0.0100 ng/ml for plasma and 0.500 ng/ml for urine. Then, a formal assessment was performed using both analysis of variance (ANOVA) and power model approaches. […] In Part 2, steady state attainment was determined based on visual inspection of mean observed predose plasma concentration during multiple dosing (Ctrough) versus time profiles at each dose level. […]
ENDPOINT: half-life (h)
Note: unit h is implicit; provide only the numeric part.

Any idea what half-life was measured for CONC(=O)Nc1ccc(-c2sc3c(c2CN(C)C)c(=O)n(-c2ccc(OC)nn2)c(=O)n3Cc2c(F)cccc2F)cc1 ?
64.5
